molecular target: FAAH (Rattus norvegicus, UniProt P97612)
Sequence (P97612 whole entry): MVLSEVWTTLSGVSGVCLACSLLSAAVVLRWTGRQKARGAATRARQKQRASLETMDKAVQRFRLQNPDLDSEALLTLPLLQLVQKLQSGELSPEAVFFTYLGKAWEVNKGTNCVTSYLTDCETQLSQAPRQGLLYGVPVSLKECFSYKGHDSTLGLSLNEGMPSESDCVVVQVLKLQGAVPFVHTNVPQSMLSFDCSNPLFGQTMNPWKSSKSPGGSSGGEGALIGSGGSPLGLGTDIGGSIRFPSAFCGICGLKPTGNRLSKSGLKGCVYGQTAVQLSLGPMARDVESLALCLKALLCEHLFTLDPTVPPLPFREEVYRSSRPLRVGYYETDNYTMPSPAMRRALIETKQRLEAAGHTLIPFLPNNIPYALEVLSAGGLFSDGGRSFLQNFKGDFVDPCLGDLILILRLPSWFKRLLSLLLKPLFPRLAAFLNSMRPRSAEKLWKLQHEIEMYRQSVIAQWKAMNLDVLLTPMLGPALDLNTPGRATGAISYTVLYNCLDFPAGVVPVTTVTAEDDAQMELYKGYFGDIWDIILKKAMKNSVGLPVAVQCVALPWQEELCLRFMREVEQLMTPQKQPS
OUTCOME MEASURE: log10 of IC50 (log10 of the value in nM)
All values: log10 IC50 [nM].

Reported log10 of IC50 for FAAH (Rattus norvegicus, UniProt P97612), given N#Cc1cccc(OC(=O)NCCCCCn2ccc3ccc(F)cc32)c1 ?
0.90

Reported log10 of IC50 for FAAH (Rattus norvegicus, UniProt P97612), given Cc1ncccc1OC(=O)NCCCCCn1ccc2ccc(F)cc21 ?
1.00

Reported log10 of IC50 for FAAH (Rattus norvegicus, UniProt P97612), given O=C(O)c1ccc(OC(=O)N2CCC(CCn3ccc4ccc(F)cc43)CC2)cc1 ?
1.18

Reported log10 of IC50 for FAAH (Rattus norvegicus, UniProt P97612), given O=C(NCCCCCn1ccc2ccc(F)cc21)Oc1ccccc1C(=O)O ?
1.58

Reported log10 of IC50 for FAAH (Rattus norvegicus, UniProt P97612), given O=C(NCCCCCCCn1ccc2ccc(F)cc21)Oc1ccccc1 ?
1.92

Reported log10 of IC50 for FAAH (Rattus norvegicus, UniProt P97612), given O=C(O)c1cccc(OC(=O)N2CCC(CCn3ccc4ccc(F)cc43)CC2)c1 ?
1.43

Reported log10 of IC50 for FAAH (Rattus norvegicus, UniProt P97612), given O=C(NCCCCCn1ccc2ccc(F)cc21)Oc1ccc(F)cc1 ?
1.69

Reported log10 of IC50 for FAAH (Rattus norvegicus, UniProt P97612), given O=C(NCCCCCn1ccc2ccc(F)cc21)Oc1ccc(C(=O)O)cc1 ?
1.08

Reported log10 of IC50 for FAAH (Rattus norvegicus, UniProt P97612), given O=C(NCCCCCn1ccc2ccc(F)cc21)Oc1cccc(C(=O)O)c1 ?
1.26

Reported log10 of IC50 for FAAH (Rattus norvegicus, UniProt P97612), given O=C(O)Cc1ccc(OC(=O)NCCCCCn2ccc3ccc(F)cc32)cc1 ?
1.15

Reported log10 of IC50 for FAAH (Rattus norvegicus, UniProt P97612), given Cc1ccncc1OC(=O)NCCCCCn1ccc2ccc(F)cc21 ?
0.48

Reported log10 of IC50 for FAAH (Rattus norvegicus, UniProt P97612), given O=C(O)c1ccccc1OC(=O)N1CCC(CCn2ccc3ccc(F)cc32)CC1 ?
3.54

Reported log10 of IC50 for FAAH (Rattus norvegicus, UniProt P97612), given O=C(NCCCCn1ccc2ccc(F)cc21)Oc1ccccc1 ?
2.67
